test: pKa was determined
Format: physicochemical
experimental endpoint: pKa

CCOC(=O)c1cnc2c(c(C)nn2C)c1Nc1ccc(Br)cc1 = 8.39
CCOC(=O)c1cnc2c(c(C)nn2C)c1Nc1cccc(Cl)c1 = 9.05
CCOC(=O)c1cnc2c(c(C)nn2C)c1Nc1ccc(OC)cc1 = 8.07
CCOC(=O)c1cnc2c(c(C)nn2C)c1Nc1cccc([N+](=O)[O-])c1 = 8.38
CCOC(=O)c1cnc2c(c(C)nn2C)c1Nc1ccc(C)cc1 = 8.61
CCOC(=O)c1cnc2c(c(C)nn2C)c1Nc1ccc(F)cc1 = 8.14
CCOC(=O)c1cnc2c(c(C)nn2C)c1Nc1ccccc1 = 8.23
CCOC(=O)c1cnc2c(c(C)nn2C)c1Nc1ccc([N+](=O)[O-])cc1 = 8.8
CCOC(=O)c1cnc2c(c(C)nn2C)c1Nc1ccc(Cl)cc1 = 7.98
CCOC(=O)c1cnc2c(c(C)nn2C)c1Nc1ccc(O)cc1 = 9.98
CCOC(=O)c1cnc2c(c(C)nn2C)c1Nc1cccc(C)c1 = 7.06
CCOC(=O)c1cnc2c(c(C)nn2C)c1Nc1cccc(OC)c1 = 7.64
